experiment: Product stability in DPBS at 25° C.; assay type: physicochemical; conditions: DPBS (+Ca2+, +Mg2+), 2 h, mean ± SD, normalized to fraction immediately after preparation
Below, each entry is listed with its recorded Fraction of radioligand in DPBS at 25° C., 2 h.
# output: bare number, implied unit %

Consider the reported Fraction of radioligand in DPBS at 25° C., 2 h for these compounds:
compound="CC1(C)CN(CCCCC(=O)N[C@H](Cc2ccc(O)c(I)c2)C(=O)N[C@H](Cc2ccccc2)C(=O)N[C@H](CCCCNC(=O)CCCCCCC(=O)NCCCC[C@H](NC(=O)N[C@@H](CCC(=O)O)C(=O)O)C(=O)O)C(=O)O)CC[N]2CC(C)(C)[S][99Tc]2(=[O])[S]1 (stereo partly drawn) [[^99mTc]TcO-4]" result_unit=% result=100
compound="CC1(C)CN(CCCCC(=O)N[C@@H](Cc2ccccc2)C(=O)N[C@@H](Cc2ccccc2)C(=O)N[C@H](CCCCNC(=O)CCCCCCC(=O)NCCCC[C@H](NC(=O)N[C@@H](CCC(=O)O)C(=O)O)C(=O)O)C(=O)O)CC[N]2CC(C)(C)[S][99Tc]2(=[O])[S]1 (stereo partly drawn) [[^99mTc]TcO-2]" result_unit=% result=97.7

Let's switch to this compound now.
Lookup: Return reported Fraction of radioligand in DPBS at 25° C., 2 h; argument: O=C(O)CC[C@H](NC(=O)N[C@@H](CCCCNC(=O)CCCCCCC(=O)NCCCC[C@@H](NC(=O)[C@H](CCC(=O)O)NC(=O)[C@H](CCC(=O)O)NC(=O)CCC(=O)NCCCN1CC[S][99Tc]2(=[O])[S]CC[N]2CC1)C(=O)O)C(=O)O)C(=O)O (stereo partly drawn) [[^99mTc]TcO-6]
Found: 74.4
